Tested on: DMS 114 small cell lung
TEST METHOD NOTES: NCI tumour cell line growth inhibition, 48 h
Entries and their TGI

Would you please look over these solved cases?
>>> print(df.to_string())
                                   compound              test_target  property_label  measured
0  O=[N+]([O-])c1ccc(Cl)cc1C1SCc2nc3ccccc3n21 (configuration not stated)  DMS 114 small cell lung             TGI  > 100 µM
1  O=C(NS(=O)(=O)c1ccccc1)C(Cc1ccccc1)C(Cc1ccccc1)C(=O)NS(=O)(=O)c1ccccc1 (configuration not stated)  DMS 114 small cell lung             TGI  > 100 µM
2  Cc1ccccc1N=NC(C(=O)c1ccccc1)C(=O)c1ccccc1  DMS 114 small cell lung             TGI   50.7 µM
3  O=C(O)/C=C/C(=O)N1C/C(=C\c2ccccc2)C(=O)/C(=C/c2ccccc2)C1  DMS 114 small cell lung             TGI   8.78 µM
4      O=C(O)CCSC(=O)Nc1ccc(N=Nc2ccccc2)cc1  DMS 114 small cell lung             TGI  > 100 µM
5  Cc1ccc(S(=O)(=O)c2c(N)n(CCN(C)C)c3nc4ccccc4nc23)cc1  DMS 114 small cell lung             TGI  > 100 µM
6  N#CC1=C(Cl)NC(Cl)=C(C#N)C1c1c(Cl)cccc1Cl  DMS 114 small cell lung             TGI   28.3 µM
7  O=C(CC1C(=O)c2ccccc2C1=C1C(=O)c2ccccc2C1=O)c1ccccc1 (configuration not stated)  DMS 114 small cell lung             TGI  > 100 µM

Request: Using DMS 114 small cell lung as the test system, report measured TGI of COC(=O)CCC(=O)NC1C2CC3CC(C2)CC1C3 (configuration not stated) .
Result: > 100 µM

Request: Look up DMS 114 small cell lung data: TGI of "Nn1c(N=Nc2c(O)[nH]c3c(Cl)cc(Cl)cc23)n[nH]c1=S" , then report it.
Result: > 100 µM

Request: Provide TGI, tested on DMS 114 small cell lung, for CC12Oc3ccc4ccccc4c3CC1Cc1c(ccc3ccccc13)O2 (configuration not stated) .
Result: > 100 µM

Request: Give TGI only, for COc1ccc2nc(NC(=O)C(=O)C(C#N)c3ccc(Cl)c(Cl)c3)sc2c1 (configuration not stated) , using DMS 114 small cell lung data.
Result: > 100 µM

Request: Fill: TGI (DMS 114 small cell lung) for this compound CCOC(OC1=C(C#N)CCCC1)C(C)[Se]c1ccccc1 (configuration not stated)
Result: 15.4 µM

---

Test system: T-47D breast
TEST METHOD NOTES: NCI tumour cell line growth inhibition, 48 h
PROPERTY LABEL: TGI

Look over these answered cases.
                                   molecule  property_label   measured
0  CCOC(=O)/C(C#N)=C/c1ccc2c(c1)CC1(C2)Cc2cc(CC)c(C(C)O)cc2C1 (stereo not given)             TGI   > 100 µM
1  CC1=C(/C=C/C(C)=C/C=C/C(C)=C/CO)C(C)(C)CCC1             TGI    96.2 µM
2         S=c1[nH]nc(NNc2ccccc2)n1Nc1ccccc1             TGI  > 59.6 µM
3  CN(/N=N/c1nc(OCc2ccccc2)c2[nH]cnc2n1)C(=O)Oc1ccc([N+](=O)[O-])cc1             TGI    32.7 µM
4  COP(=O)(OC)/C(=C\c1cn(C(c2ccccc2)(c2ccccc2)c2ccccc2)cn1)NC(C)=O             TGI   > 100 µM

Request: Hello, please tell me recorded TGI for this one: "NC(=O)c1cccc([C@@H]2O[C@H](CO)[C@@H](O)[C@H]2O)c1"
Result: > 66.6 µM

Request: Determine its reported TGI: COc1cc2c(c(OC3OC(CO)C(O)C(O)C3O)c1)C(=O)CC(c1ccc(O)cc1)O2 (stereo not given)
Result: > 100 µM

Request: Specify measured TGI for "CN(C)CCN1C(=O)c2cccc3cccc(c23)C1=O" .
Result: > 25 µM

Request: Return TGI for the following molecule: O=C1C=CC(O)C2C1CC13SSC4(CC5C(=O)C=CC(O)C5N4C1=O)C(=O)N23 (stereo not given)
Result: 2.53 µM

Request: Input COc1ccc(NC2CC(C)N(C(=O)c3ccccc3)O2)cc1 (stereo not given) , output reported TGI.
Result: > 10 µM

---

System: MDA-MB-231 breast
TEST METHOD NOTES: NCI tumour cell line growth inhibition, 48 h
PROPERTY LABEL: TGI (µM)
Give a bare numeral; the unit µM is implied.

Recorded results for 2 compounds are shown here.
>>> print(df.to_string())
                           molecular_string        test_target  property_label  measured
0  COc1cc(/C=C/C(=O)c2cccnc2Nc2ccc(F)cc2)cc(OC)c1OC  MDA-MB-231 breast             TGI      11.8
1  CC1=C(/C=C/C(C)=C/C=C/C(C)=C/CO)C(C)(C)CCC1  MDA-MB-231 breast             TGI      78.5

Attention now turns to another entry.
Request: Provide measured TGI on MDA-MB-231 breast for "ClCc1ccc(Cn2cnc3c(Cl)nc(Cl)nc32)cc1" please.
Result: 3.63

---

System: HS 578T breast
Use one of these outcomes when replying: active, inactive

Previously resolved entries follow.
>>> print(df.to_string())
                                   molecule     class
0  CN(/N=N/c1nc(OCc2ccccc2)c2[nH]cnc2n1)C(=O)Oc1ccc([N+](=O)[O-])cc1  inactive
1  CCn1c2ccccc2c2cc(C(O)c3cccc4ncccc34)ccc21 (centres undefined)    active
2        CN(C)CCN1C(=O)c2cccc3cccc(c23)C1=O  inactive
3  COc1ccc(-c2nn(-c3cccc(NC(=O)c4ccc(N5CCOCC5)c(C(F)(F)F)c4)c3)cc2-c2ccncc2)cc1Cl  inactive
4           O=C(Nc1ccc(I)cc1F)c1cc(Cl)ccc1O    active

Request: I would be grateful if you could indicate the recorded call for C=CCCCc1ccc(C(O)CCCCCCCCCCCC)o1 (centres undefined) .
Result: inactive

Request: Per the assay record, what outcome was assigned to "C=C1c2c(Cl)ccc(O)c2C(O)=C2C(=O)[C@]3(O)C(O)=C(C(N)=O)C(=O)[C@@H](N(C)C)[C@@H]3[C@@H](O)[C@H]12" ?
Result: inactive

Request: Hey, what did the test say about COc1ccc(C2=CC(c3ccc(OC)c(OC)c3)c3c(c4ccccc4oc3=O)O2)cc1OC (centres undefined) ?
Result: inactive

Request: Which outcome was entered for the molecule "ClCc1ccc(Cn2cnc3c(Cl)nc(Cl)nc32)cc1" in this test?
Result: inactive

---

# collection of GI50 values tested on NCI-H23 lung

Worked cases, GI50 given:
In [3]: df
Out[3]:
                                   compound  property_label  measured
0       ClCc1ccc(Cn2cnc3c(Cl)nc(Cl)nc32)cc1            GI50   7.62 µM
1                  Cc1cccc2c(N)c3ccccc3nc12            GI50   1.81 µM
2  C/C=C(\C)C(=O)N[C@H]1C(O)C[C@]2(C)C3CC[C@@]4(C)C(CC[C@@H]4C(C)N(C)C)C3CCC2C1O (stereo not given in full)            GI50   13.1 µM
3  COc1ccc(Nc2cc(C)nc(N3CCN(c4ccnc5cc(Cl)ccc45)CC3)n2)cc1            GI50   3.82 µM

Request: Item "c1ccc(CNc2nc(Nc3ccccc3)nc3ccccc23)cc1" : provide GI50
Result: 2.17 µM

Request: Identify GI50 associated with the compound "CC(=O)Oc1ccc(C(c2ccc(OC(C)=O)cc2)c2ccccn2)cc1"
Result: 5.08 µM

Request: Query GI50 for "Cn1cnc([N+](=O)[O-])c1Sc1ncn[nH]1"
Result: 99.5 µM

Request: State its GI50: "COc1ccc(OC)c(Nc2nc(-c3c(C)nc4sccn34)cs2)c1"
Result: 51.1 µM

Request: Complete the entry with GI50 for "Cc1ccc2c(=O)cc(-c3sc4ccccc4c3C)[nH]c2n1"
Result: 19.7 µM

Request: Tell me its GI50 given "O=C1c2nc3n(c2C(=O)c2c1nc1n2CCC1)CCC3" as the entry.
Result: 3.08 µM

---

System: NCI-H522 lung
TEST METHOD NOTES: NCI tumour cell line growth inhibition, 48 h
Entries annotated with measured TGI

Reference set, count: 8
                                   molecule  measured
0  COc1ccc(NC2CC(C)N(C(=O)c3ccccc3)O2)cc1 (centres undefined)   > 10 µM
1  N#CC1=C(Cl)NC(Cl)=C(C#N)C1c1c(Cl)cccc1Cl   38.1 µM
2  COC(=O)C1=CC2OC1(C)CCC2=O (centres undefined)  > 100 µM
3           O=c1[nH]n(Cc2ccccc2Cl)c2ccccc12  > 100 µM
4  COc1ccc2nc(NC(=O)c3cccnc3Nc3cc(OC)c(OC)c(OC)c3)sc2c1     12 µM
5  CC(C)C(NC(=O)C(Cc1ccccc1)NC(=O)[C@H]1CCC[C@H]1NC(=O)C(N)Cc1ccc(O)cc1)C(N)=O (some centres undefined)  > 100 µM
6  O=C1C2Nc3ccccc3SC2C(=O)N1c1ccccc1C(F)(F)F (centres undefined)   56.3 µM
7  Cc1ccc(S(=O)(=O)c2c(N)n(CCN(C)C)c3nc4ccccc4nc23)cc1   58.7 µM

Request: Name the recorded TGI of the molecule listed here: "S=c1[nH]nc(NNc2ccccc2)n1Nc1ccccc1"
Result: > 100 µM

Request: Return TGI for the following molecule: "N#Cc1nc(COCCOCc2ccc(F)cc2)oc1N"
Result: > 100 µM

Request: Please report the measured TGI for "O=C(Nc1ccc(Cl)c(Cl)c1)OCCN1c2ccccc2Sc2ccccc21"
Result: > 10 µM

Request: Give the value of TGI reported for the following: "c1ccc2c(c1)C1=NCCN1c1ccccc1-2"
Result: 3.13 µM

Request: Give the measured TGI for CC1=NN(C(=O)CC(=O)Nc2cccc(Cl)c2)C(=O)C1N=Nc1ccc(C(=O)O)cc1 (centres undefined)
Result: > 100 µM

Request: Identify TGI associated with the molecule "C/C=C/[C@H](O[Si](C)(C)C(C)(C)C)[C@@H](O)/C=C/C(=O)OCC"
Result: 30.3 µM

Request: Determine from records and report TGI for "CCOC(=O)C1=C(Nc2ccc(Cl)c(Cl)c2)OC/C1=N\NS(=O)(=O)c1ccc(C)cc1"
Result: 74.8 µM

Request: Kindly indicate its recorded TGI. Item: "CCOC(=O)c1c(N2CCCC2)[nH]c(=O)c(C(c2cccs2)c2c(O)c(C(=O)OCC)c(N3CCCC3)[nH]c2=O)c1O"
Result: > 100 µM

Data provenance is PubChem BioAssay (NCI).
